Values from patent US20240398805A1

tested on: HCC827-YVMA cells (human ERBB2 exon20 insertion mutant A775_G776ins YVMA); assay: Cell growth inhibition (CellTiter-Glo, 3 days) in HCC827-YVMA; format: cell-based; settings: 72 h, 3 days after administration
MEASURED_ENDPOINT: GI50

SMILES_RECORD: C=CC(=O)N1CCC(Nc2cc3c(Nc4ccc(Oc5ccnc(N6CCC[C@@H](OC)C6)c5)c(Cl)c4)ncnc3cc2OC)CC1
SYSTEM: HCC827-YVMA cells (human ERBB2 exon20 insertion mutant A775_G776ins YVMA)
MEASURED_ENDPOINT: GI50
RESULT_VALUE: 60 to 100 nM
--
SMILES_RECORD: C=CC(=O)N1CCC(Nc2cc3c(Nc4ccc(Oc5ccnc(N6CC[C@H](CO)C6)c5)cc4F)ncnc3cc2OC)CC1
SYSTEM: HCC827-YVMA cells (human ERBB2 exon20 insertion mutant A775_G776ins YVMA)
MEASURED_ENDPOINT: GI50
RESULT_VALUE: < 30 nM

Query compound follows.
Output GI50 of `C=CC(=O)N1CCC(Nc2cc3c(Nc4ccc(Oc5nc(-c6cnc(C)c(F)c6)cs5)cc4F)ncnc3cc2OC)CC1` 30 to 60 nM
